biological target: serotoninergic 5-HT7 receptor (Homo sapiens, UniProt P34969); experiment: Binding assay 5-HT7 (h), [3H]LSD, CHO cells; parameters: expressed in transfected cells; host or cells: CHO cells; details: read-out: 5-HT7
Sequence (P34969 whole entry): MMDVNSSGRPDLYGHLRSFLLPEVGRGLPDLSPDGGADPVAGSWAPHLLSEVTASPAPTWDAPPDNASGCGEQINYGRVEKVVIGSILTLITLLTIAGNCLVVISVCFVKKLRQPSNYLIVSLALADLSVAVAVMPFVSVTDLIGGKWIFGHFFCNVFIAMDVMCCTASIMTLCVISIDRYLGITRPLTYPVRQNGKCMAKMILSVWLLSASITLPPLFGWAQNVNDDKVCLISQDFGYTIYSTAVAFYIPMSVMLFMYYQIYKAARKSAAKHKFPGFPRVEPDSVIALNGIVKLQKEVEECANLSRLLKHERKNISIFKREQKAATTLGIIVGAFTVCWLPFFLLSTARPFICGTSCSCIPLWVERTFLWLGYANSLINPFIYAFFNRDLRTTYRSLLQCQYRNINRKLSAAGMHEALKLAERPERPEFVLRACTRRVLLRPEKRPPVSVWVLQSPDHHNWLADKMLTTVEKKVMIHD
# inhibition at 1 µM per record follows
Report only the number, with the unit % understood.

Example entries begin here.
1. Cc1[nH]c2ccc(Cl)cc2c1C1=CCN(CCNS(=O)(=O)c2cccc3ccccc23)CC1 34
2. O=S(=O)(NCCCN1CCN(c2nsc3ccccc23)CC1)c1cnc2ccccn12 86
3. O=S(=O)(NCCCCN1CCN(c2nsc3ccccc23)CC1)c1ccc(C(F)(F)F)cc1 97

Ask | I would be grateful if you could share the reported inhibition at 1 µM for Cc1[nH]c2ccc(Cl)cc2c1C1=CCN(CCCNS(=O)(=O)c2ccc(Cl)cc2)CC1 .
Reply | 59

Where do these numbers come from? They come from patent US8822517B2.
